Test system: P. aeruginosa DSM 50071
test-protocol: Antimicrobial microtiter plate MIC assay, P. aeruginosa
Assay type: cell-based, Pseudomonas aeruginosa
conditions: Pseudomonas aeruginosa, DSM50071, Gram-negative, cation-adjusted Mueller Hinton II, 16–18 h at 37 °C

[
  {
    "molecule": "O=C(O)c1cn(C2CC2)c2cc(N3CCNCC3)c(F)cc2c1=O [Ciprofloxacin, reference compound]",
    "MIC": "1.2 µM"
  },
  {
    "molecule": "c1ccc(Cn2c[n+](Cc3ccccc3)c3ccccc32)cc1 [2a]",
    "MIC": "1350 µM"
  },
  {
    "molecule": "Cc1ccc2c(c1)n(Cc1ccccc1)c[n+]2Cc1ccccc1 [2b]",
    "MIC": "1300 µM"
  },
  {
    "molecule": "Brc1ccc2c(c1)n(Cc1ccccc1)c[n+]2Cc1ccccc1 [2f]",
    "MIC": "> 1120 µM"
  }
]

###

System: B. subtilis 168
test-protocol: Antimicrobial microtiter plate MIC assay, B. subtilis
Type: cell-based, Bacillus subtilis
conditions: Gram-positive; B. subtilis 168 (DSM 402); Mueller Hinton broth, 16–18 h at 37 °C
Procedure: The fungus Candida albicans was used as a non-bacterial reference organism. The broad-spectrum antibiotic Ciprofloxacin was used as a reference drug. Compounds were tested in a microtiter plate assay according to CLSI guidelines against E. coli DSM 30083, A. baumannii DSM 30007, P. aeruginosa DSM 50071, B. subtilis DSM 402, S. aureus DSM 20231, S. aureus ATCC 43300 (MRSA), and C. albicans, as described previously. […]
Here the recorded MIC is given for each entry.

[
  {
    "compound": "Cc1ccc(C(C)C)cc1.[Cl][Ru]([Cl])=[c]1n(Cc2ccccc2)c2ccc(Br)cc2n1Cc1ccccc1 [3f]",
    "MIC (µM)": 11.7
  },
  {
    "compound": "Cc1ccc(C(C)C)cc1.Cc1ccc2c(c1)n(Cc1ccccc1)[c](=[Ru]([Cl])[Cl])n2Cc1ccccc1 [3b]",
    "MIC (µM)": 25.9
  },
  {
    "compound": "Cc1ccc(C(C)C)cc1.Clc1ccc2c(c1)n(Cc1ccccc1)[c](=[Ru]([Cl])[Cl])n2Cc1ccccc1 [3e]",
    "MIC (µM)": 25.1
  },
  {
    "compound": "COc1ccc2c(c1)n(Cc1ccccc1)[c](=[Ru]([Cl])[Cl])n2Cc1ccccc1.Cc1ccc(C(C)C)cc1 [3c]",
    "MIC (µM)": 25.2
  },
  {
    "compound": "Cc1ccc(C(C)C)cc1.Fc1ccc2c(c1)n(Cc1ccccc1)[c](=[Ru]([Cl])[Cl])n2Cc1ccccc1 [3d]",
    "MIC (µM)": 25.7
  }
]

###

System: A. baumannii DSM 30007
test-protocol: Antimicrobial microtiter plate MIC assay, A. baumannii
Format: cell-based, Acinetobacter baumannii
conditions: Gram-negative, Mueller Hinton broth, 16–18 h at 37 °C

[
  {
    "compound-smiles": "Cc1ccc(C(C)C)cc1.Fc1ccc2c(c1)n(Cc1ccccc1)[c](=[Ru]([Cl])[Cl])n2Cc1ccccc1",
    "system-tested": "A. baumannii DSM 30007",
    "MIC": "205.6 µM"
  },
  {
    "compound-smiles": "Cc1ccc(C(C)C)cc1.[Cl][Ru]([Cl])=[c]1n(Cc2ccccc2)c2ccc(Br)cc2n1Cc1ccccc1",
    "system-tested": "A. baumannii DSM 30007",
    "MIC": ">749.1 µM"
  },
  {
    "compound-smiles": "Cc1ccc(C(C)C)cc1.Clc1ccc2c(c1)n(Cc1ccccc1)[c](=[Ru]([Cl])[Cl])n2Cc1ccccc1",
    "system-tested": "A. baumannii DSM 30007",
    "MIC": ">802.4 µM"
  },
  {
    "compound-smiles": "Cc1ccc(C(C)C)cc1.Cc1ccc2c(c1)n(Cc1ccccc1)[c](=[Ru]([Cl])[Cl])n2Cc1ccccc1",
    "system-tested": "A. baumannii DSM 30007",
    "MIC": "413.8 µM"
  },
  {
    "compound-smiles": "COc1ccc2c(c1)n(Cc1ccccc1)[c](=[Ru]([Cl])[Cl])n2Cc1ccccc1.Cc1ccc(C(C)C)cc1",
    "system-tested": "A. baumannii DSM 30007",
    "MIC": ">806.8 µM"
  }
]

This collection of values is drawn from paper PMC8303947.
